Reference source for all entries: PubChem BioAssay (NCI)

System: SF-539 CNS
EXPERIMENTAL_PROTOCOL: NCI-60 one-dose screen, 48 h
CONDITION_DESCRIPTION: 10 µM unless noted
About 83,000 compounds went through this panel and 20% of them were active in at least one assay; those are over-represented in the sample as a whole. Active and inactive are the calls of the source. The calls were made as follows: active = growth percent below 10; inactive = the rest.
Entry note: the call must match one of active, inactive

## Input Which result was noted for this compound in the test: O=C(Nc1ccc2c(c1)OCO2)C(=O)c1c[nH]c2cc(F)ccc12
## Output inactive

## Input Queued: Clc1cc2c(nn1)Nc1ccccc1S2
## Output inactive

## Input COc1ccc(/C=C2\N=C(c3ccccc3)N(C(=O)c3ccccc3O)NC2=O)cc1 , same question.
## Output inactive

## Input O=S1(=O)CCC(N(/N=C/c2ccco2)c2ccccc2)C1 (stereo not given) , same question.
## Output inactive

## Input Now try O=c1[nH]c(Nc2ccc(S(=O)(=O)O)cc2)nc2nc(Nc3ccc(NC(=S)Nc4ccccc4)cc3)nc(-c3ccc(O)cc3O)c12 .
## Output inactive

## Input Repeat for the following compound: c1cc2[nH]ncc2cc1-c1nc2ccc3[nH]ncc3c2c2c1CCC2
## Output inactive

## Input Also check O=C(c1ccccc1)C1OC1c1ccc([N+](=O)[O-])cc1 (stereo not given)
## Output inactive

----------
Property: growth; scope: individual molecules
Tested on: MOLT-4 leukemia
EXPERIMENTAL_PROTOCOL: NCI-60 one-dose screen, 48 h (100 = growth as untreated, 0 = no growth, -100 = all killed)
CONDITION_DESCRIPTION: 10 µM unless noted
Compounds without any hit were thinned out: in the full panel of roughly 83,000, 20% have a hit.
Kindly answer with a numeric value in %, unit omitted.

CCOc1cc2c(Cl)ncnc2c(OCC)c1OCC 21.7
CCCCCCCC[C@@H](O)CC(=O)N[C@@H](CC(N)=O)C(=O)N[C@@H](CCC(N)=O)C(=O)N[C@@H](CC(=O)c1cc(C)cc(O)c1C(=O)c1c(O)cccc1O)CC(C)C 14
CCCCCCCCN(CCCCCCCC)CCCCCCNc1cc(OC)cc2cccnc12 50

Pending molecule:
## Input Consider the molecule shown here: COc1ccc(CNCCCN2C(=O)c3ccc4c5c(ccc(c35)C2=O)C(=O)N(CCCNCCCCNCCCN)C4=O)c(OC)c1OC What is its recorded growth?
## Output 14.4

----------
Test system: K-562 leukemia
EXPERIMENTAL_PROTOCOL: NCI-60 one-dose screen, 48 h
CONDITION_DESCRIPTION: 10 µM unless noted
Method: Cells are grown in 96 well plates and exposed to the test compound for 48 hours. Compounds are tested at a single concentration, which is 10^-5 M for most compounds. The reported endpoint is percent growth (GI% or GIPRCNT), where numbers from 0 - 100% represent growth inhibition, and numbers from -100% - 0 represent cell death. For example, a value of 40 represents 60% growth inhibition. A value of 0 means no net growth occurred over the course of the experiment. […]
About 83,000 compounds went through this panel and 20% of them were active in at least one assay; those are over-represented in the sample as a whole. The source made the active and inactive calls. How the source made its calls: active means growth percent below 10; inactive means the rest.
Select the matching outcome among Y = active, N = inactive

Observe how each entry below is paired with its result.
COMPOUND	CAT
OC(c1cc2cc(Br)ccc2c2cc(Br)ccc12)C1CCCCN1 (stereo not given)	Y
COc1cc(NCCCCCN)c2ncccc2c1	N
COc1ccc(-c2cnnn2-c2nonc2-n2cccc2)cc1OC	Y
COc1cc2c(cc1OCCCN1CCN(CCCn3c4ccccc4c4ccccc43)CC1)N=C[C@@H]1CCCN1C2=O	Y
O=C1CS/C(=N\Nc2cc(=O)[nH]c3ccccc23)N1c1ccccc1	N
Cc1ccc2[nH]c(=O)c3c(c2c1)Oc1ncn2nc(-c4ccco4)nc2c1C3c1ccc(Cl)cc1 (stereo not given)	N
C=C1C(=O)O[C@H]2[C@H]1CC/C(Cn1cc(CNC(=O)/C=C/c3c[nH]c4ccccc34)nn1)=C\CC[C@@]1(C)O[C@@H]21	N
O=C(NNC(=O)N1c2ccccc2C=Cc2ccccc21)c1ccccc1	N

## Input Returns: the outcome recorded for N/C(=N\C(N)=N\c1nc2ccccc2s1)c1cccc(Br)c1 in this assay.
## Output N

## Input Can you handle CC(C)(C)N1CCC1C(N)=O (stereo not given) next?
## Output N
